Target: Stb5 (UniProt P38699)
Sequence: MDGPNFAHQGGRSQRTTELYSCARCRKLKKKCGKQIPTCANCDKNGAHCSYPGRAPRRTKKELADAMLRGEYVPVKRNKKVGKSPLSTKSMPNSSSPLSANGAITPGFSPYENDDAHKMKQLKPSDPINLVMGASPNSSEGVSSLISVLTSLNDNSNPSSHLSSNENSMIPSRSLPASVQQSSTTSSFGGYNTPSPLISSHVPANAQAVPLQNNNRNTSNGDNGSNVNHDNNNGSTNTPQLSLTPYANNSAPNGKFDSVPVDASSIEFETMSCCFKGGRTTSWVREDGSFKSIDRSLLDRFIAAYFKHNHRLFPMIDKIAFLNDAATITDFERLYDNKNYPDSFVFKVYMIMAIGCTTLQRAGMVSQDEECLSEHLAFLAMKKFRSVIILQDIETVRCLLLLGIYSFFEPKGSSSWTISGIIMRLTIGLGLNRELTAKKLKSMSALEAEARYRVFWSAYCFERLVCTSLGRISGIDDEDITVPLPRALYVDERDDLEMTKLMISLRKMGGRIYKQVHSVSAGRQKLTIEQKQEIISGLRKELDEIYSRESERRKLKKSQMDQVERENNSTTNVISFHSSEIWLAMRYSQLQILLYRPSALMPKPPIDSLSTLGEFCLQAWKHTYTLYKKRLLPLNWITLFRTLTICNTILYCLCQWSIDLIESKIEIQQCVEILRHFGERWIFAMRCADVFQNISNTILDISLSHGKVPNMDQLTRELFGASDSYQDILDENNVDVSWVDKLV
Assay: PBM E-score (8-mer binding enrichment) (E-score (-0.5 to 0.5)); higher = stronger / more preferred TF binding
Conditions: protein concentration: 200 nM; construct: GST-full length
Over roughly 33,000 sequences, “E-score (-0.5 to 0.5)” has its median near -0.054; the highest 2% begin near 0.35. The list comes from a sample in which the highest values are over-represented; it also holds close analogues and randomly drawn sequences.
measure: PBM E-score
Just the number, please.

// known answers, use as guide
- record_sequence: "ACATTAGC"
  PBM E-score: -0.083
- record_sequence: "GGCGGAAA"
  PBM E-score: 0.227
- record_sequence: "GAGATACC"
  PBM E-score: 0.168
- record_sequence: "AAAAGCAT"
  PBM E-score: -0.0942

Given item ATCGGACG , the value recorded as its PBM E-score is 0.305

sequence CTCGGTCC , PBM E-score observed: 0.242

sequence GACCAATA , PBM E-score observed: 0.0169

Input AACCGTTA . Output PBM E-score: -0.101

Quick note, PBM E-score for AGCTACAC landed at -0.174

For reference, reported PBM E-score for GGCGGACA stands at 0.357

# PBM E-score of CTGGGGCC = -0.0638

Note to self: PBM E-score recorded for CTCCGTTA was 0.299

Recorded PBM E-score (sequence CTTCGGCA ): 0.209

Lab note: measured PBM E-score of ACCAGCGA was 0.0766

Measured PBM E-score, GTCTTTTA : -0.0581

Entry under test: CGCCGTTC . Its PBM E-score was 0.306

Note to self: PBM E-score recorded for TTATAGAA was -0.0532
